Reference source for all entries: patent US20030236190A1

- study.system: T1, Soluble IGF-1R (R&D Systems, Cat. # 391-GR/CF); recombinant human IGF-1R (human, UniProt P08069 31-935)
- T1 construct: extracellular domain; Eu3+-labelled in the TR-FRET assays; also called sIGF-1R; rhIGF-1R
- test.summary: phage ELISA, vs IR
No end group written: not given here.
measurement.name: IGF-1R/IR Comparison (ratio)
Note: unit ratio is implicit; provide only the numeric part.

binder | IGF-1R/IR Comparison (ratio)
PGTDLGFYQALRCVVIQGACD (not fully specified (bridges); cysteine pairing not given here) [20E2B-2-22-IGFR] | 8.1
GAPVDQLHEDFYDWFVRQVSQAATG [E2CA-2-B2-IGFR] | 3.5
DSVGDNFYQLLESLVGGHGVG [20E28-3-D6-IGFR] | 6.9

Read the next record carefully.
Q: I would be grateful if you could share the reported IGF-1R/IR Comparison for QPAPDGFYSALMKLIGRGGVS [20E2B-3-C8-IGFR] .
A: 8.9
